Test system: S. typhimurium ATTC700408
Assay: Anti-bacterial activity, Bioscreen C growth curve: S. typhimurium
Format: cell-based
Details: Salmonella enterica, LMG16217 / TYPHIMURIUM, 35° C., 16 hours, negative control = 100, read-out: % of growth at 25 PPM compared to the negative control, S. typhimurium ATTC700408 LMG16217
Consider the following molecules and their measured activity at 25 ppm readings.

Recorded results for 4 molecules are shown here.
CO[C@@H]1[C@@H](OC)[C@H](Sc2ccccc2)O[C@@H]2COC(=O)CCCC/C=C\CCCCC(=O)O[C@@H]12: 87%
CO[C@@H]1[C@@H](OC)[C@H](Sc2ccccc2)O[C@@H]2COCCC/C=C/CCCO[C@@H]12: 90.1%
CO[C@@H]1[C@@H](OC)[C@H](Sc2ccccc2)O[C@@H]2COC(=O)CCC(O)C(O)CCC(=O)O[C@@H]12 (stereo partly drawn): 89.7%
CO[C@@H]1[C@@H](OC)[C@H](c2ccccc2)O[C@@H]2CO[C@@H](c3ccccc3)O[C@@H]12: 87.2%

Lookup: Answer with the recorded activity at 25 ppm of CO[C@@H]1[C@@H](OC)[C@H](Cc2ccccc2)O[C@@H]2COC(=O)CCCCCCCCC=CCCCCCCCCC(=O)O[C@@H]12 [KPE00001031E] only.
Found: 91.7%

Lookup: Answer with the recorded activity at 25 ppm of CO[C@H]1[C@H](OC)[C@H](OC)COC/C=C/COC[C@H]2OC[C@H](OC)[C@@H](OC)[C@@H]2OC(=O)NC[C@@H]1OC only.
Found: 93.7%

# credit: patent US7534871B2
